Value source: the supplement of paper PMC8882468

tested on: HCI-019 (organoid from a triple-negative breast cancer xenograft); assay: CTG-3D luminescence at 96 h relative to day-0 seeding control (ratio to day 0); higher = more growth / less cytotoxicity; PDxO 3D drug screen, 96 h, CTG-3D normalised to day-0 seeding control.; details: 625 fM; days in culture: 131
Experimental endpoint: CTG-3D luminescence at 96 h
# answer = number (no unit)

CS(=O)(=O)c1ccc(C(=O)Nc2ccc(Cl)c(-c3ccccn3)c2)c(Cl)c1 | 3.4
NC(=O)Nc1cc(-c2cccc(F)c2)sc1C(=O)N[C@H]1CCCNC1 | 4.04
COc1cc2c(Oc3ccc4[nH]c(C)cc4c3F)ncnc2cc1OCCCN1CCCC1 | 3.39
Cc1cc(Nc2ncc(Cl)c(Nc3ccccc3S(=O)(=O)C(C)C)n2)c(OC(C)C)cc1C1CCNCC1 | 3.86
C[C@]12CC[C@@H]3c4ccc(O)cc4C[C@@H](CCCCCCCCC[S+]([O-])CCCC(F)(F)C(F)(F)F)[C@H]3[C@@H]1CC[C@@H]2O (some centres not stated) | 4.13

Quickly give me recorded CTG-3D luminescence at 96 h for `CC(C)(C(=O)NCC(F)(F)C(F)(F)F)C(=O)N[C@@H]1C(=O)Nc2ccccc2-c2ccccc21` 4.34

Tell me CTG-3D luminescence at 96 h reported for `NC1(C(=O)N[C@@H](CCO)c2ccc(Cl)cc2)CCN(c2nc[nH]c3nccc2-3)CC1` 4.08

###

test system: HCI-001 (organoid from a triple-negative breast cancer xenograft); assay: CTG-3D luminescence at 96 h relative to day-0 seeding control (ratio to day 0); higher = more growth / less cytotoxicity; PDxO 3D drug screen, 96 h, CTG-3D normalised to day-0 seeding control.; conditions: 625 fM; days in culture: 240
Experimental endpoint: CTG-3D luminescence at 96 h
Write the number on its own, no unit after it.

Below: 5 compounds and their reported CTG-3D luminescence at 96 h.
CCN1CCN(Cc2ccc(Nc3ncc(F)c(-c4cc(F)c5nc(C)n(C(C)C)c5c4)n3)nc2)CC1 | 1.47
C=CC(=O)N1CCC[C@@H](n2nc(-c3ccc(Oc4ccccc4)cc3)c3c(N)ncnc32)C1 | 1.14
Cc1cc(Nc2ncc(Cl)c(Nc3ccccc3S(=O)(=O)C(C)C)n2)c(OC(C)C)cc1C1CCNCC1 | 1.26
C=CCn1c(=O)c2cnc(Nc3ccc(N4CCN(C)CC4)cc3)nc2n1-c1cccc(C(C)(C)O)n1 | 1.51
C[C@H](NC(=O)CCC(F)(F)F)C(=O)N[C@@H]1C(=O)N(CCO)c2ncccc2-c2ccccc21 | 0.941

Tell me its CTG-3D luminescence at 96 h given `CC(C)n1nc(-c2ccc3oc(N)nc3c2)c2c(N)ncnc21` as the entry. 1.12

State its CTG-3D luminescence at 96 h for this compound: `Nc1ccn([C@@H]2O[C@H](CO)[C@@H](O)C2(F)F)c(=O)n1` 1.22

Provide measured CTG-3D luminescence at 96 h value, entry: `Cc1nc(-c2cn3c(n2)-c2ccc(-c4cnn(C(C)(C)C(N)=O)c4)cc2OCC3)n(C(C)C)n1` 1.22

Return value of CTG-3D luminescence at 96 h for input `O=C(O)C1(C(=O)O)CCC1.[NH2-].[NH2-].[Pt+2]` , no commentary. 1.36

Output CTG-3D luminescence at 96 h of `NC(=O)c1cccc2cn(-c3ccc([C@@H]4CCCNC4)cc3)nc12` 1.32

Indicate its recorded CTG-3D luminescence at 96 h; the compound in question is `COc1cc2c(Oc3ccc4[nH]c(C)cc4c3F)ncnc2cc1OCCCN1CCCC1` 1.37
